# TARGET OR TEST SYSTEM: recombinant full-length WRN protein (1-1432) (Homo sapiens)
# Construct: recombinant full-length WRN protein (1-1432)
# Sequence (Q14191 whole entry): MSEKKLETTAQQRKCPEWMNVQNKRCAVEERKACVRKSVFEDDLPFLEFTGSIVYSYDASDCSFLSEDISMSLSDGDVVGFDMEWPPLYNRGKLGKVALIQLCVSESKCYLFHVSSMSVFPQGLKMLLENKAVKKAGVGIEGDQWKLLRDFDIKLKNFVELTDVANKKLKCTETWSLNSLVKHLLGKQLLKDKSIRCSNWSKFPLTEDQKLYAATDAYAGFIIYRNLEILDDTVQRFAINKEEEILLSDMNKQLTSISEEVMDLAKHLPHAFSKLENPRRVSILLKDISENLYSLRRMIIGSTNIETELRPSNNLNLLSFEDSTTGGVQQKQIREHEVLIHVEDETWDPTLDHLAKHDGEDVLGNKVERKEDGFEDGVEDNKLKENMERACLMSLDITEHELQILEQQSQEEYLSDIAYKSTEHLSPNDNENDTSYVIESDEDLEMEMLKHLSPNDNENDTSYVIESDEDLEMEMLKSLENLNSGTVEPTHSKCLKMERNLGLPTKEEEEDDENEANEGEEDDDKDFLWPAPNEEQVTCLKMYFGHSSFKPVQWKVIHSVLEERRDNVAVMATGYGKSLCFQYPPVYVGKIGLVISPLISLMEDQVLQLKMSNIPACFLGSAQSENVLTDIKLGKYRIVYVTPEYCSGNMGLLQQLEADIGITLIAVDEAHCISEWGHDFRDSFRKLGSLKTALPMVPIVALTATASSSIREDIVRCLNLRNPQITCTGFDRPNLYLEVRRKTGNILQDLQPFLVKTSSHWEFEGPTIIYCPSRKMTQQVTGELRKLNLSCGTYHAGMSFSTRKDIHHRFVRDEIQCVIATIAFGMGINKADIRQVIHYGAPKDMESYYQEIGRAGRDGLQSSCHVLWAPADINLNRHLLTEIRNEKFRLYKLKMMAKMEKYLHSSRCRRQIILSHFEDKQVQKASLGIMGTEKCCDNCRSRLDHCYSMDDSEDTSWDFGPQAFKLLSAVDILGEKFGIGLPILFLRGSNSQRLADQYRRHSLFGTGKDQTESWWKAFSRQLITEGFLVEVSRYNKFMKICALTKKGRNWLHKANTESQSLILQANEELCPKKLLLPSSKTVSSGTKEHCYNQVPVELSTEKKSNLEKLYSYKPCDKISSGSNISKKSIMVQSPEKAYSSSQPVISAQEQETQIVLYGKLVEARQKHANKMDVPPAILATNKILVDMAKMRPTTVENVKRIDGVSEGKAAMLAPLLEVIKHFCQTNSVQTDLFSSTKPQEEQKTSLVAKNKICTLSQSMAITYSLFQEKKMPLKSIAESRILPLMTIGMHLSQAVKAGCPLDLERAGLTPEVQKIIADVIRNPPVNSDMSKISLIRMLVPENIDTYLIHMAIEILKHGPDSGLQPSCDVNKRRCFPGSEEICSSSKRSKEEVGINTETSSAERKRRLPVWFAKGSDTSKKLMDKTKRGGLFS
# ASSAY REMARKS: WRN unwinding activity, fluorogenic 384-well assay (Example A)
# Format: biochemical
# RUN CONDITIONS: WRN unwinding activity, 4 hr; Table 2; read-out: 4 hr UNW pIC50 (converted)
Field: IC50. Provide a value for each of the compounds that follow.
Give bare numbers, in nM.

{"COMPOUND": "CN1CCC[C@H](c2cccc(S(=O)(=O)N(C)c3ccc([C@H]4CCC[C@@H](COc5ccc(C(F)(F)F)cc5)[C@@H]4C(=O)O)cc3)c2)C1 (single isomer, unassigned) [Example 217]", "TARGET OR TEST SYSTEM": "recombinant full-length WRN protein (1-1432) (Homo sapiens)", "IC50 / nM": 126}

Batch lookup, IC50 per entry.
1. Cc1nc2cc(S(=O)(=O)N(C)c3cnc([C@H]4CCC[C@@H](C(=O)Nc5ccc(C(F)(F)F)cc5F)[C@@H]4C(=O)O)cn3)ccc2n1C (single isomer, unassigned) [Example 164]
2. C=C(F)C(=O)Nc1ccc([C@H]2CCC[C@@H](C(=O)Nc3ccc(C(F)(F)F)cc3F)[C@@H]2C(=O)O)cc1 (racemic) [Example 227]
3. Cc1nc2cc(S(=O)(=O)N(C)c3ccc([C@H]4C[C@@H](CS(C)(=O)=O)C[C@@H](C(=O)Nc5ccc(C(F)(F)F)cc5F)[C@@H]4C(=O)O)cc3)ccc2n1C (relative stereo) [Example 395]
4. Cc1nc2cc(S(=O)(=O)N(C)c3ccc([C@H]4C[C@@H](N5CCC[C@H](F)C5)C[C@@H](C(=O)Nc5ccc(C(F)(F)F)cc5F)[C@@H]4C(=O)O)cc3)ccc2n1C (stereo in doubt) [Example 350]

Output line:
1. 1.26
2. 79.4
3. 1.58
4. 1.58

The measured values listed here are drawn from patent US12662451B2.
